src = patent US20230147657A1

- target-entity: T1, human CD45RC (human, UniProt P08575 26-1306)
- T1 construct: Native protein on human blood leukocytes / PBMC / T cells of healthy volunteers; also called hCD45RC
- T1 sequence: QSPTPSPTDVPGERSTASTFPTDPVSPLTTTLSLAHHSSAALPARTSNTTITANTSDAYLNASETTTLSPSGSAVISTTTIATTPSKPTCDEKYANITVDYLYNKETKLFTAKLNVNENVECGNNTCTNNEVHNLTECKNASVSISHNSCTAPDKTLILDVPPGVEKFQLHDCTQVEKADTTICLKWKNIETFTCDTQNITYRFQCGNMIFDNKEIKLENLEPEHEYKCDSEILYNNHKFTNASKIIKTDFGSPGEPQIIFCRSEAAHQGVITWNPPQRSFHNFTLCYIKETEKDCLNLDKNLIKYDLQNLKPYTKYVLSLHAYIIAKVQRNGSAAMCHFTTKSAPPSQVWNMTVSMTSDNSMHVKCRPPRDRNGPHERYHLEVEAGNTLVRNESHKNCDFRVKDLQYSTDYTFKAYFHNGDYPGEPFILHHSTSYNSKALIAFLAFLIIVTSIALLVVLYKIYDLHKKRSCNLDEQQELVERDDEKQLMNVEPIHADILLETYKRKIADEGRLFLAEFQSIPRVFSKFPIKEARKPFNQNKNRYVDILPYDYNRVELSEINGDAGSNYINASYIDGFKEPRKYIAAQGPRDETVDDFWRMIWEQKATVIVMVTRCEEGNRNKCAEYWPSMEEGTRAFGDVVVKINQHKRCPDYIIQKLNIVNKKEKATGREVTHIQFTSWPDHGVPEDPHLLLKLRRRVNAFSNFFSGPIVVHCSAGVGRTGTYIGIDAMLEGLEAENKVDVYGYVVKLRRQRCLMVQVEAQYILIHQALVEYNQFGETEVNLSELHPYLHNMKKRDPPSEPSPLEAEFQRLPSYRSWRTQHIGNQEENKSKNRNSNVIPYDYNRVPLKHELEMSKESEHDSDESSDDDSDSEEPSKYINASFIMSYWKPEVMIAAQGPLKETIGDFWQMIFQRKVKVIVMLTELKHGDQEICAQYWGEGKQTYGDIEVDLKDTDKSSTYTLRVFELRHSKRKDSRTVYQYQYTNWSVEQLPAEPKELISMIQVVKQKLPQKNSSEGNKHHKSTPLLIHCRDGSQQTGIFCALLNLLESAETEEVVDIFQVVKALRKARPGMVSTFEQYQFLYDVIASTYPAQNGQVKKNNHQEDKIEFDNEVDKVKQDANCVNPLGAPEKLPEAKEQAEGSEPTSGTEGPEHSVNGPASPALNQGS
- test-details: flow cytometry on T cells of human PBMC; biotin anti-human IgG + streptavidin PerCP-Cy5.5
outcome-measure: % of T cells in the CD45RC gate at 2 µg/mL (%)
State the answer as a number, implicitly in %.

Some entries whose results are on file:
binder | quantitative-result
Anti-45RC Variant D (antibody, human IgG1, kappa, V domains shown, also called humanized ABIS-45RC variant D) VH: EVQLVQSGAEVKKPGESLKISCKASGYTFTNYYIGWVRQMPGKGLEWIGDIFPGGDYANSNEKFKGQVTLSADKSISTAYLQLSSLKASDTAMYYCVRRNFDYWGQGTLVTVSS VL: DIQLTQSPSFLSASVGDRVTITCSASSSVSYMHWFQQKPGKAPKLWIYNTSNLPSGVPSRFSGSGSGTEYTLTISSLQPEDFATYYCQQRSSYPLTFGGGTKVEIKR | 59.5
Anti-45RC Variant A (antibody, human IgG1, kappa, V domains shown, also called humanized ABIS-45RC variant A) VH: QVQLVQSGAEVKKPGASVKVSCKASGYTFTNYYIGWVRQAPGQGLEWIGDIFPGGDYANSNEKFKGRVTLTADTSISTAYMELSRLRSDDTVVYYCVRRNFDYWGQGTLVTVSS VL: DIQLTQSPSFLSASVGDRVTITCSASSSVSYMHWFQQKPGKAPKLWIYNTSNLPSGVPSRFSGSGSGTEYTLTISSLQPEDFATYYCQQRSSYPLTFGGGTKVEIKR | 60.2
Anti-45RC Variant C (antibody, human IgG1, kappa, V domains shown, also called humanized ABIS-45RC variant C) VH: QVQLVQSGAEVKKPGASVKVSCKASGYTFTNYYIGWVRQAPGQGLEWIGDIFPGGDYANSNEKFKGRVTLTADTSISTAYMELSRLRSDDTVVYYCVRRNFDYWGQGTLVTVSS VL: EIVLTQSPATLSLSPGERATLSCSASSSVSYMHWFQQKPGQAPRLWIYNTSNLPSGIPARFSGSGSGTDYTLTISSLEPEDFAVYYCQQRSSYPLTFGGGTKVEIKR | 63.7

Shift focus to the following entry.
Form: binder = Anti-45RC Variant B (antibody, human IgG1, kappa, V domains shown, also called humanized ABIS-45RC variant B) VH: QVQLVQSGAEVKKPGASVKVSCKASGYTFTNYYIGWVRQAPGQGLEWIGDIFPGGDYANSNEKFKGRVTLTADTSISTAYMELSRLRSDDTVVYYCVRRNFDYWGQGTLVTVSS VL: EIVLTQSPDFQSVTPKEKVTITCSASSSVSYMHWFQQKPDQSPKLWIYNTSNLPSGVPSRFSGSGSGTDYTLTINSLEAEDAATYYCQQRSSYPLTFGGGTKVEIKR ; % of T cells in the CD45RC gate at 2 µg/mL = 32.7
